Data provenance: patent US5192525A

Measured RBA: relative binding affinity values are reported for all entries that follow.
Molecular target: estrogen receptor (Sus scrofa)
Construct: uteri (90 gm) were obtained from immature domestic swine (15 kg); from tissue; host or cells: uterus cytosol (100,000 g supernatant, charcoal-treated) of immature domestic swine
Sequence (Q29040 whole entry): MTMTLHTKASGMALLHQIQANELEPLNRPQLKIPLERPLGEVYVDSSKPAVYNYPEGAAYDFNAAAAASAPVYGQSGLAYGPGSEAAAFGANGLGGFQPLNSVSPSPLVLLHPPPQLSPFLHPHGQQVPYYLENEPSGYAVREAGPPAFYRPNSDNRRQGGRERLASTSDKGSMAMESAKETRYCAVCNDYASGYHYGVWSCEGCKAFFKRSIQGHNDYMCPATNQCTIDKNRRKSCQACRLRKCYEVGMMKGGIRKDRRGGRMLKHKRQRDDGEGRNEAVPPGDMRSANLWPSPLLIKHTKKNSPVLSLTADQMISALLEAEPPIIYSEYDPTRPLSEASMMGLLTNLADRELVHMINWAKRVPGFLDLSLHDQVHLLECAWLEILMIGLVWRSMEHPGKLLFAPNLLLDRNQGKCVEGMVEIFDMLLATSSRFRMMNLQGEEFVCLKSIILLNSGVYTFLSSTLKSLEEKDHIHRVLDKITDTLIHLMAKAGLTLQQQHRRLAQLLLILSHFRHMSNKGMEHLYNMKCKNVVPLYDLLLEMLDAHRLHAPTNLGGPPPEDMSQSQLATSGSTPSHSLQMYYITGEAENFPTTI
Assay: Estrogen receptor binding in pig uterus cytosol, displacement of [3H]estradiol
Settings: Table 6; IC50 ratio between tamoxifen and competitor (tamoxifen given as 1)
endpoint: RBA: relative binding affinity

CCN(CC)CCOc1ccc(/C(=C(/CCCBr)c2ccccc2)c2ccccc2)cc1 [Compound XI (trans)]    150
CCN(CC)CCOc1ccc(/C(=C(\CCCBr)c2ccccc2)c2ccccc2)cc1 [Compound XI (cis)]    37.5
CCN(CC)CCOc1ccc(/C(=C(/CCCO)c2ccccc2)c2ccccc2)cc1 [III (trans), N,N-diethyl-hydroxymethyltamoxifen]    4
CCN(CC)CCOc1ccc(/C(=C(\CCCI)c2ccccc2)c2ccccc2)cc1 [X (cis), N,N-diethyl-iodomethyltamoxifen]    10
